Cited source: ChEMBL document CHEMBL1131065

# Test target: Telomerase reverse transcriptase (Homo sapiens, UniProt O14746)
# Sequence (O14746 whole entry): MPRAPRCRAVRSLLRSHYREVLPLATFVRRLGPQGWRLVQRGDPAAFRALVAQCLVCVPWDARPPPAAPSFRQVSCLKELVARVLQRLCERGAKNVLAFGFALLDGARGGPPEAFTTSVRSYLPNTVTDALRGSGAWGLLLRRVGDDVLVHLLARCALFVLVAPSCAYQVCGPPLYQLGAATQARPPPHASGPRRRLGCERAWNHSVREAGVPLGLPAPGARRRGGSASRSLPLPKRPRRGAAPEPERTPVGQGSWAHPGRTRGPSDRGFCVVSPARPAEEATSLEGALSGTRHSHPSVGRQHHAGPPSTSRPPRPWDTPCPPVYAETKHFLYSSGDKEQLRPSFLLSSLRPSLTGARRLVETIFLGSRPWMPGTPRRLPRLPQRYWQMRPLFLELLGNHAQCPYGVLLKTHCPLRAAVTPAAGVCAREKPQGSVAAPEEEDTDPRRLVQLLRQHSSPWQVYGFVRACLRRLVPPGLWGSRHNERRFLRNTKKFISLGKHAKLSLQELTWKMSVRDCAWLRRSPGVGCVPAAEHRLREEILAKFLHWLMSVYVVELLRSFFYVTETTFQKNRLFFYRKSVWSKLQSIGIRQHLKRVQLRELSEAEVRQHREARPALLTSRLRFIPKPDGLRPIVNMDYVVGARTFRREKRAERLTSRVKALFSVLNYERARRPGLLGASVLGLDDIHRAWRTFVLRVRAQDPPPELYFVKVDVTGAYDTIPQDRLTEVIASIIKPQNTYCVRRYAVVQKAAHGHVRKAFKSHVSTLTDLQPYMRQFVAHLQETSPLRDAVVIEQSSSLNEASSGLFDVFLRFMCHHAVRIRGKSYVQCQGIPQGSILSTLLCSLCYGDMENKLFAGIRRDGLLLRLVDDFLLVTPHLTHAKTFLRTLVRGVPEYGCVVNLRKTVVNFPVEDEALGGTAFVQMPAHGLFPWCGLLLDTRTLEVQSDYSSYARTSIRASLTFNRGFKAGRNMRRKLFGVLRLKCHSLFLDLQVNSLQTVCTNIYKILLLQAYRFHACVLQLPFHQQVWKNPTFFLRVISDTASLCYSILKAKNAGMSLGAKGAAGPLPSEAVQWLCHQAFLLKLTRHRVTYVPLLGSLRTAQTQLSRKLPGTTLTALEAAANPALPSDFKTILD
# Protocol summary: Inhibition of telomerase activity
For each of the compounds below, state its IC50.
Answers are plain numbers, in µM.

Let me know recorded IC50 for CCCN(CCC)CCC(=O)Nc1ccc(NC(=O)CCN(CCC)CCC)c2c1C(=O)c1ccccc1C2=O , thanks.
50

Give IC50 for C[N+]1(CCC(=O)Nc2ccc(NC(=O)CC[N+]3(C)CCCCC3)c3c2C(=O)c2ccccc2C3=O)CCCCC1
11.1

Query IC50 for C[N+](C)(C)CCC(=O)Nc1ccc2c(c1)C(=O)c1ccc(NC(=O)CC[N+](C)(C)C)cc1C2=O
17.3

Now for a further compound.
Give the measured IC50 for C[N+]1(CCC(=O)Nc2ccc(NC(=O)CC[N+]3(C)CCCCC3CO)c3c2C(=O)c2ccccc2C3=O)CCCCC1CO (centres undefined)
9.4

---

# System: SK-OV-3
# Protocol summary: Concentration required to inhibit SKOV-3-cell growth by 50%
# Type: functional, cell-based
# Cond: Homo sapiens
Readout kind: IC50 (µM)
One number for each entry, in µM.

Worked set:
Read off the recorded IC50 for CCC[N+](C)(CCC)CCC(=O)Nc1ccc(NC(=O)CC[N+](C)(CCC)CCC)c2c1C(=O)c1ccccc1C2=O
16

Return the recorded IC50 value; entry: O=C(CCN1CCCCC1CO)Nc1ccc2c(c1)C(=O)c1ccc(NC(=O)CCN3CCCCC3CO)cc1C2=O (stereo unspecified)
2.4

Report IC50 for O=C(CN1CCOCC1)Nc1ccc2c(c1)C(=O)c1ccc(NC(=O)CN3CCOCC3)cc1C2=O
4.5

Retrieve IC50 measured for CCCN(CCC)CCC(=O)Nc1ccc(NC(=O)CCN(CCC)CCC)c2c1C(=O)c1ccccc1C2=O and print it.
4.5

Please report the measured IC50 for O=C(CCN1CCCCC1CO)Nc1ccc(NC(=O)CCN2CCCCC2CO)c2c1C(=O)c1ccccc1C2=O (stereo unspecified)
0.27

Please look at this compound and report its IC50: CCC[N+](C)(CCC)CCC(=O)Nc1ccc2c(c1)C(=O)c1ccc(NC(=O)CC[N+](C)(CCC)CCC)cc1C2=O
2

Recall and state the measured IC50 for O=C(CCN1CCCCC1)Nc1ccc2c(c1)C(=O)c1ccc(NC(=O)CCN3CCCCC3)cc1C2=O .
4

Read the entry O=C(CCN1CCOCC1)Nc1ccc(NC(=O)CCN2CCOCC2)c2c1C(=O)c1ccccc1C2=O and write its reported IC50.
21

Please report the measured IC50 for C[N+]1(CCC(=O)Nc2ccc3c(c2)C(=O)c2ccc(NC(=O)CC[N+]4(C)CCCCC4CO)cc2C3=O)CCCCC1CO (stereo unspecified)
1.8

Please list IC50 recorded for the compound O=C(CN1CCCCC1)Nc1ccc2c(c1)C(=O)c1ccc(NC(=O)CN3CCCCC3)cc1C2=O
5

Give me IC50 for each of these compounds, listed below.
1. C[N+](C)(C)CCC(=O)Nc1ccc(NC(=O)CC[N+](C)(C)C)c2c1C(=O)c1ccccc1C2=O
2. C[N+]1(CCC(=O)Nc2ccc(NC(=O)CC[N+]3(C)CCOCC3)c3c2C(=O)c2ccccc2C3=O)CCOCC1
3. C[N+]1(CC(=O)Nc2ccc3c(c2)C(=O)c2ccc(NC(=O)C[N+]4(C)CCOCC4)cc2C3=O)CCOCC1
4. C[N+]1(CCC(=O)Nc2ccc3c(c2)C(=O)c2ccc(NC(=O)CC[N+]4(C)CCCCC4)cc2C3=O)CCCCC1

1: 11.5; 2: 8.5; 3: 45.5; 4: 2.2

Give IC50 for all compounds that follow.
1. COc1cccc2c1C(=O)c1c(O)c3c(c(O)c1C2=O)C[C@@](O)(C(=O)CO)C[C@@H]3O[C@H]1C[C@H](N)[C@H](O)[C@H](C)O1 [DOXORUBICIN]
2. CN(C)CCC(=O)Nc1ccc(NC(=O)CCN(C)C)c2c1C(=O)c1ccccc1C2=O

1. 0.078
2. 0.36
